# measured_on: trypsin
# assay_details: inhibition of the amidolytic activity of trypsin (chromogenic substrate S-2251)
# Format: biochemical
# assay_context: substrate S-2251, 200 and 750 μM, otherwise analogous to thrombin
quantity: Ki

Report Ki for NC(=NO)N1CCC[C@@H](CNC(=O)C[C@H](NS(=O)(=O)c2ccc3ccccc3c2)C(=O)N(CCNC(=O)c2cnccn2)C2CC2)C1 [Example 22] please. 16.5 µM

Continuing:
Report Ki for N=C(N)N1CCC[C@@H](CNC(=O)C[C@H](NC(=O)c2ccccc2)C(=O)N(CC(=O)O)C2CC2)C1 [Example 14d] please. 83 µM

###

# measured_on: human thrombin (Homo sapiens)
# assay_details: inhibition of the amidolytic activity of thrombin (chromogenic substrate S-2238)
# Type: biochemical
# assay_context: specificity: Ki trypsin / Ki thrombin
quantity: q (ratio of the inhibition of trypsin to the inhibition of thrombin)
Respond numerically, and do not add a unit to the figure.

Worked cases, answers included:
Report q (ratio of the inhibition of trypsin to the inhibition of thrombin) for CCOC(=O)CN(C(=O)[C@H](CC(=O)NC[C@@H]1CCCN(C(=N)N)C1)NC(=O)c1ccccc1)C1CC1 [Example 13d] please. 5

Report q (ratio of the inhibition of trypsin to the inhibition of thrombin) for `N=C(N)N1CCC[C@@H](CNC(=O)C[C@H](NS(=O)(=O)N2CCOCC2)C(=O)N(CCNC(=O)OCc2ccccc2)C2CC2)C1` please. 2826

Report q (ratio of the inhibition of trypsin to the inhibition of thrombin) for `N=C(N)N1CCC[C@@H](CNC(=O)C[C@H](NC(=O)OCc2ccccc2)C(=O)N(CC(=O)O)C2CC2)C1` please. 1583

Continuing:
Report q (ratio of the inhibition of trypsin to the inhibition of thrombin) for `CC(C)(C)OC(=O)N[C@@H](CC(=O)NC[C@@H]1CCCN(C(=N)N)C1)C(=O)N(CCNC(=O)c1cnccn1)C1CC1` please. 449

Report q (ratio of the inhibition of trypsin to the inhibition of thrombin) for `NC(=NO)N1CCC[C@@H](CNC(=O)C[C@H](NS(=O)(=O)c2ccc3ccccc3c2)C(=O)N(CCNC(=O)c2cnccn2)C2CC2)C1` please. 11000

Report q (ratio of the inhibition of trypsin to the inhibition of thrombin) for `CCCCN(CCC(=O)OCC)C(=O)[C@H](CC(=O)NC[C@@H]1CCCN(C(=N)N)C1)NC(=O)NCc1ccco1` please. 204
